tested_system: rat intestinal sucrase (Rattus norvegicus, UniProt P23739)
Construct: rat small intestinal brush border membrane vesicles were first prepared; from tissue; host or cells: rat small intestine, brush border membrane vesicles
Sequence (P23739 whole entry): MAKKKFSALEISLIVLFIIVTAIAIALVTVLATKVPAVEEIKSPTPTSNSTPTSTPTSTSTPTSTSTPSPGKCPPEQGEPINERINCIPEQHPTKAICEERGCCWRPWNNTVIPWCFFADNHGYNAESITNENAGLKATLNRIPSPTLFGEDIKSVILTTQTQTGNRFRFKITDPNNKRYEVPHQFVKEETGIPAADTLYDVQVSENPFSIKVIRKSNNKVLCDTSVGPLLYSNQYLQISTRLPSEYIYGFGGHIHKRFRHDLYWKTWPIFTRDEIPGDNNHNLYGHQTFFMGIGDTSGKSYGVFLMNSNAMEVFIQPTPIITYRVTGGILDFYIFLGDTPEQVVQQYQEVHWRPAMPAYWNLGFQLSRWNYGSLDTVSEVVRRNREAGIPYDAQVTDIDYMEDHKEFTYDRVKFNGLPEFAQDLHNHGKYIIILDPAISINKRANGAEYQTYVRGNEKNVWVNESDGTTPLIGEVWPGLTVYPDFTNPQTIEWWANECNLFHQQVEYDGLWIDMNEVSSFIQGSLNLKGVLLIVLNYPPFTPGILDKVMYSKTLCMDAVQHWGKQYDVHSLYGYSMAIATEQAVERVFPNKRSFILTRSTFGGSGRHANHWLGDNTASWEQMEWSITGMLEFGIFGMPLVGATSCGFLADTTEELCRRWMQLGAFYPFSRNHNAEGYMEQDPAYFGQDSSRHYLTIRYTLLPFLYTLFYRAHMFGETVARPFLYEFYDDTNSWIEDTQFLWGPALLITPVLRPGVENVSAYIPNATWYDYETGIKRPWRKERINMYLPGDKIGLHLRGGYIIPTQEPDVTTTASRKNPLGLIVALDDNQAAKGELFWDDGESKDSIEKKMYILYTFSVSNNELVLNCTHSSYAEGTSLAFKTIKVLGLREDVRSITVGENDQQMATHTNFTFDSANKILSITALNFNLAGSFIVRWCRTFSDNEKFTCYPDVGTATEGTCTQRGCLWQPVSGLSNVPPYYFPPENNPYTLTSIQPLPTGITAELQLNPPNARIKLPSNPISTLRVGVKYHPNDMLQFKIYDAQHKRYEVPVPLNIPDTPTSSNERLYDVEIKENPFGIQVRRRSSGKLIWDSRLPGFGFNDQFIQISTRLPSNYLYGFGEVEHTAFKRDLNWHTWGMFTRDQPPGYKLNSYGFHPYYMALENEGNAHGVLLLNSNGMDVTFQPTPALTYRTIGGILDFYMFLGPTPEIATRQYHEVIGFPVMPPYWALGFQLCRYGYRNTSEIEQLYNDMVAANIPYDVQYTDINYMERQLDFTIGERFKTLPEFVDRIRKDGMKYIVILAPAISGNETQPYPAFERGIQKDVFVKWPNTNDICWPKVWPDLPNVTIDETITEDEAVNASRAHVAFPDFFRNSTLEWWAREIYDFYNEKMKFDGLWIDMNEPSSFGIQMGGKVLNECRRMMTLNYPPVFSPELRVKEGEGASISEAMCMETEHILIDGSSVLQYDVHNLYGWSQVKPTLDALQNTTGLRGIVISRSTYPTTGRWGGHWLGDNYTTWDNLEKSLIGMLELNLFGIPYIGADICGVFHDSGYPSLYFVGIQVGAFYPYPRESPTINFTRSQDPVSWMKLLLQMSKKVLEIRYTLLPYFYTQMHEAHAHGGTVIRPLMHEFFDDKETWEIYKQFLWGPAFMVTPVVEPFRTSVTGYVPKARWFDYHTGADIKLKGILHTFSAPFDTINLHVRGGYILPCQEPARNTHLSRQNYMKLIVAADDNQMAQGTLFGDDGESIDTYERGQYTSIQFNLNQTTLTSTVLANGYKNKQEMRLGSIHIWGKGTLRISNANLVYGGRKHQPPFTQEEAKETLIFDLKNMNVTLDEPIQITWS
assay_notes: In vitro α-glucosidase inhibition assay, rat intestinal sucrase
Format: biochemical
test_settings: rat small intestinal brush border membrane vesicles; sucrose substrate; mean ± SD (n = 3); read-out: IC50 against sucrase
IC50 strictly under 3000 nM means 1; at 3000 nM or over means -1.

These recorded examples may help you get a feel for the data.
OCC1C(O)C(O)C[S+]1CC(O)C1OC(c2cc(Cl)cc(Cl)c2)OCC1O (centres unmarked) [19g] :: -1
OCC1C(O)C(O)C[S+]1CC(O)C1OC(c2ccc(Br)cc2)OCC1O (centres unmarked) [19m] :: -1

Query: Input OCC1C(O)C(O)C[S+]1CC(O)C1OC(c2ccc(Cl)cc2Cl)OCC1O (centres unmarked) [19b] ; condition: IC50 strictly below 3000 nM. Does it hold?
Result: 1

* * *

Measured pIC50 values are reported for all entries that follow.
tested_system: rat intestinal maltase
assay_notes: In vitro α-glucosidase inhibition assay, rat intestinal maltase
Assay type: biochemical
test_settings: rat small intestinal brush border membrane vesicles; maltose substrate; mean ± SD (n = 3); read-out: IC50 against maltase
Just so you know, pIC50 here is -log10 of the concentration in molar units; reply with that number alone.

The following compounds have reported results that may help.
OC[C@@H]1[C@@H](O)[C@H](O)C[Se@+]1C[C@@H](O)[C@H]1OC(c2ccc(Cl)c(Cl)c2)OC[C@H]1O (stereo partly shown) [20f] :: 6.33
OC[C@@H]1[C@@H](O)[C@H](O)C[Se@+]1C[C@@H](O)[C@H]1OC(c2cc(Cl)ccc2Cl)OC[C@H]1O.[Cl-] (stereo partly shown) [20c] :: 6.85
OCC(CO)N[C@H]1C[C@](O)(CO)[C@@H](O)[C@H](O)[C@H]1O :: 5.84
OCC1C(O)C(O)C[S+]1CC(O)C1OC(c2ccc(Cl)c(Cl)c2)OCC1O (stereo not shown) [19f] :: 5.30
O=[N+]([O-])c1ccc(F)cc1C1OCC(O)C(C(O)C[S+]2CC(O)C(O)C2CO)O1 (stereo not shown) [19j] :: 6.12

Query: State the recorded pIC50 for this entry: C[C@H]1O[C@H](O[C@H]2[C@H](O)[C@@H](O)[C@@H](O[C@H]3[C@H](O)[C@@H](O)C(O)O[C@@H]3CO)O[C@@H]2CO)[C@H](O)[C@@H](O)[C@@H]1N[C@H]1C=C(CO)[C@@H](O)[C@H](O)[C@H]1O (stereo partly shown)
Result: 5.46

Query: Now this one: OCC1C(O)C(O)C[S+]1CC(O)C1OC(c2cc(Cl)cc(Cl)c2)OCC1O (stereo not shown) [19g]
Result: 5.31

* * *

Measured pIC50 values are reported for all entries that follow.
tested_system: rat intestinal maltase
assay_notes: In vitro α-glucosidase inhibition assay, rat intestinal maltase
Format: biochemical
test_settings: rat small intestinal brush border membrane vesicles; maltose substrate; mean ± SD (n = 3); read-out: IC50 against maltase
Just so you know, pIC50 here is -log10 of the concentration in molar units; reply with that number alone.

The following molecules have reported results that may help.
OC[C@@H]1[C@@H](O)[C@H](O)C[Se@+]1C[C@@H](O)[C@H]1OC(c2cccc(Br)c2)OC[C@H]1O (some centres unmarked) [20l] :: 6.16
O=[N+]([O-])c1ccc(F)cc1C1OC[C@@H](O)[C@@H]([C@H](O)C[Se@@+]2C[C@@H](O)[C@H](O)[C@H]2CO)O1 (some centres unmarked) [20j] :: 6.48
OC[C@@H]1[C@@H](O)[C@H](O)C[Se@+]1C[C@@H](O)[C@H]1OC(c2cccc(F)c2Cl)OC[C@H]1O (some centres unmarked) [20d] :: 6.21
OCC1C(O)C(O)C[S+]1CC(O)C1OC(c2cccc(Br)c2)OCC1O (centres unmarked) [19l] :: 5.01

Query: Form entry - test system: rat intestinal maltase; read-out: pIC50; molecule: OC[C@@H]1[C@@H](O)[C@H](O)C[S@@+]1C[C@@H](O)[C@@H](O)[C@H](O)[C@@H](O)CO
Result: 5.14

Query: Now this one: OC[C@@H]1[C@@H](O)[C@H](O)C[Se@+]1C[C@@H](O)[C@H]1OC(c2cc(C(F)(F)F)cc(C(F)(F)F)c2)OC[C@H]1O (some centres unmarked) [20i]
Result: 6.00

Query: Now this one: OC[C@@H]1[C@@H](O)[C@H](O)C[Se@+]1C[C@@H](O)[C@H]1OC(c2cc(F)cc(Cl)c2)OC[C@H]1O (some centres unmarked) [20h]
Result: 5.44

Query: Now this one: OC[C@@H]1[C@@H](O)[C@H](O)C[Se@@+]1C[C@@H](O)[C@H]1OC(c2cccc3ccccc23)OC[C@H]1O (some centres unmarked) [20q]
Result: 6.04

Query: Now this one: N#Cc1ccccc1C1OC[C@@H](O)[C@@H]([C@H](O)C[Se@@+]2C[C@@H](O)[C@H](O)[C@H]2CO)O1 (some centres unmarked) [20p]
Result: 6.09

Query: Now this one: OC[C@@H]1[C@@H](O)[C@H](O)C[Se@+]1C[C@@H](O)[C@H]1OC(c2cc(Cl)cc(Cl)c2)OC[C@H]1O (some centres unmarked) [20g]
Result: 6.15

Query: Now this one: OCC1C(O)C(O)C[S+]1CC(O)C1OC(c2ccccc2F)OCC1O (centres unmarked) [19n]
Result: 6.38

Query: Now this one: OCC1C(O)C(O)C[S+]1CC(O)C1OC(c2ccc(Cl)cc2Cl)OCC1O (centres unmarked) [19b]
Result: 5.70

Query: Now this one: N#Cc1ccccc1C1OCC(O)C(C(O)C[S+]2CC(O)C(O)C2CO)O1 (centres unmarked) [19p]
Result: 6.06

Query: Now this one: OC[C@@H]1[C@@H](O)[C@H](O)C[Se@+]1C[C@@H](O)[C@H]1OC(c2ccc(Br)cc2)OC[C@H]1O (some centres unmarked) [20m]
Result: 7.15

Query: Now this one: OCC1C(O)C(O)C[S+]1CC(O)C1OC(c2ccc(Br)cc2)OCC1O (centres unmarked) [19m]
Result: 5.39

Query: Now this one: OCC1C(O)C(O)C[S+]1CC(O)C1OC(c2cccc(F)c2Cl)OCC1O (centres unmarked) [19d]
Result: 6.00

Query: Now this one: OCC1C(O)C(O)C[S+]1CC(O)C1OC(c2ccccc2-c2ccccc2)OCC1O (centres unmarked) [19r]
Result: 4.98

Query: Now this one: OCC1C(O)C(O)C[S+]1CC(O)C1OC(c2ccccc2Br)OCC1O (centres unmarked) [19k]
Result: 5.72

Query: Now this one: OCC1C(O)C(O)C[S+]1CC(O)C1OC(c2cccc(Cl)c2Cl)OCC1O (centres unmarked) [19a]
Result: 6.30

Query: Now this one: OC[C@@H]1[C@@H](O)[C@H](O)C[Se@@+]1C[C@@H](O)[C@H]1OC(c2ccccc2I)OC[C@H]1O (some centres unmarked) [20o]
Result: 6.44

Query: Now this one: OCC1C(O)C(O)C[S+]1CC(O)C1OC(c2cc(Cl)ccc2Cl)OCC1O (centres unmarked) [19c]
Result: 6.26

Query: Now this one: OC[C@@H]1[C@@H](O)[C@H](O)C[Se@+]1C[C@@H](O)[C@H]1OC(c2ccccc2F)OC[C@H]1O (some centres unmarked) [20n]
Result: 5.43

Query: Now this one: OC[C@@H]1[C@@H](O)[C@H](O)C[Se@+]1C[C@@H](O)[C@H]1OC(c2cccc(Cl)c2Cl)OC[C@H]1O.[Cl-] (some centres unmarked) [20a]
Result: 6.48

* * *

tested_system: rat intestinal maltase
assay_notes: Inhibition-kinetic study (Lineweaver–Burk), maltase
Assay type: biochemical
test_settings: small intestinal α-glucosidase; Lineweaver–Burk
Measured Ki Maltase (Km = 3.0 mM) values are reported for all entries that follow.
I only need the number, in µg/mL, no unit after it.

C[C@H]1O[C@H](O[C@H]2[C@H](O)[C@@H](O)[C@@H](O[C@H]3[C@H](O)[C@@H](O)C(O)O[C@@H]3CO)O[C@@H]2CO)[C@H](O)[C@@H](O)[C@@H]1N[C@H]1C=C(CO)[C@@H](O)[C@H](O)[C@H]1O (stereo partly shown) :: 1.98

Query: Form entry - test system: rat intestinal maltase; read-out: Ki Maltase (Km = 3.0 mM); compound: O=[N+]([O-])c1ccccc1C1OC[C@@H](O)[C@@H]([C@H](O)C[S@@+]2C[C@@H](O)[C@H](O)[C@H]2CO)O1 (stereo partly shown)
Result: 0.42

Query: Now this one: OC[C@@H]1[C@@H](O)[C@H](O)C[Se@+]1C[C@@H](O)[C@H]1OC(c2cc(Cl)ccc2Cl)OC[C@H]1O.[Cl-] (stereo partly shown) [20c]
Result: 0.67

Query: Now this one: OC[C@@H]1[C@@H](O)[C@H](O)C[Se@+]1C[C@@H](O)[C@H]1OC(c2cccc(Cl)c2Cl)OC[C@H]1O.[Cl-] (stereo partly shown) [20a]
Result: 0.94
